- ASSAY_SYSTEM: protochlorophyllide oxidoreductase (POR) (Thermosynechococcus vestitus, UniProt Q8DLC1, S16C)
- Construct: recombinant, overexpressed in Escherichia coli, purified as in earlier work
- METHOD: FRET from protein Trp to bound NADPH
OBSERVED_PROPERTY: Kd
Remember to follow the number with its unit.

Input line: Which Kd reading was recorded for the compound NC(=O)C1=CN([C@@H]2O[C@H](COP(=O)(O)OP(=O)(O)OC[C@H]3O[C@@H](n4cnc5c(N)ncnc54)[C@H](OP(=O)(O)O)[C@@H]3O)[C@@H](O)[C@H]2O)C=CC1 ?
Output line: 325 nM
